Data origin: PubChem BioAssay (NCATS)

- tested_target: Retinaldehyde dehydrogenase 3 (Homo sapiens)
- assay_remarks: qHTS for Inhibitors of the Aldehyde Dehydrogenase Family (ALDH1A3) Validation screen (AID 2061312); further: on the % scale 0 is the no-effect control and ±100 the full control effect; nearly all actives have a fitted effect of over 45% in size
- condition_notes: ALDH1A3 enzyme inhibition qHTS validation, fluorescence; series mostly up to 84.7 µM
Results filed as inconclusive are left out. Calls of active or inactive are those of the source. The call rests on the fitted dose curve; in most records, active means well fitted inhibition curve with a large enough effect; inconclusive means small, poorly fitted or top-dose-only effect; inactive means no such curve, though single readings can be large or run the other way.
measured_parameter: outcome

1. COc1ccccc1CN[C@H]1CCCN[C@H]1c1ccccc1 : inactive
2. CCCn1c(=O)c2[nH]c(C3CCCC3)nc2n(CCC)c1=O : inactive
3. NCCSSCCN : inactive
4. CN(C)CCc1c[nH]c2ccc(C[C@H]3COC(=O)N3)cc12 : inactive
5. COC(=O)[C@H](CC1C=NC=N1)NCC12CC3CC(CC(C3)C1)C2 (stereo partly drawn) : inactive
6. O=C(C(Cc1cccc(C(F)(F)F)c1)NS(=O)(=O)c1cc(F)c2c(c1)CCNC2)N1CCCC1 (stereo not drawn) : inactive
7. Cc1cccc(-c2[nH]ncc2-c2ccc3ncccc3n2)n1 : inactive
8. COc1ccc(NC(=O)/C=C/c2ccc(Cl)cc2)cc1 : inactive
9. c1cc(OCCCN2CCCCC2)ccc1CN1CCCCC1 : inactive
10. CC(C)(C)C1CCN(C(=O)n2ncc(C(O)(c3ccccc3)c3ccccc3)n2)CC1 : inactive
11. CC#C[C@@H](CC(=O)O)c1ccc(OCc2cccc(-c3ccc(C(F)(F)F)cc3)c2)cc1 : inactive
12. CCCn1c(=O)c2[nH]c(-c3ccc(OCC(=O)O)cc3)nc2n(CCC)c1=O : inactive
13. CC1(C(=O)Nc2ccc(F)nc2)CCCN1c1nc(Nc2cc(C3CC3)[nH]n2)c2cccn2n1 (stereo not drawn) : inactive
14. CCCc1nn(C)c2c(=O)[nH]c(-c3cc(S(=O)(=O)N4CCN(C)CC4)ccc3OCC)nc12 : inactive
15. COc1cc2c(cc1OC)C1CC(=O)C(CC(C)C)CN1CC2 (stereo not drawn) : inactive
16. Nc1nc(OCc2ccccc2)c2[nH]cnc2n1 : inactive
17. Cc1oc2ccccc2c1CNC(=O)NCc1cccs1 : inactive
18. CC(C)(C)c1ccc2c(c1)CC[C@H]2NC(=O)Nc1cccc2[nH]ncc12 : inactive
19. c1ccc(CNc2nc(N3CCOc4ccccc43)nc3c2CCCC3)cc1 : inactive
20. C[N+](C)(C)CCCCCC[N+](C)(C)C : inactive
21. Clc1ccc(Cn2c(Cc3ccccc3)nc3ccccc32)cc1 : inactive
22. CC(=O)Nc1nnc(S(N)(=O)=O)s1 : inactive
23. CNc1nc(NCc2ccc(NS(C)(=O)=O)cc2Cl)cc(-c2ccccn2)n1 : inactive

* * *

- tested_target: Cellular tumor antigen p53 (Homo sapiens) (UniProt P04637)
- Sequence (P04637 whole entry, looked up): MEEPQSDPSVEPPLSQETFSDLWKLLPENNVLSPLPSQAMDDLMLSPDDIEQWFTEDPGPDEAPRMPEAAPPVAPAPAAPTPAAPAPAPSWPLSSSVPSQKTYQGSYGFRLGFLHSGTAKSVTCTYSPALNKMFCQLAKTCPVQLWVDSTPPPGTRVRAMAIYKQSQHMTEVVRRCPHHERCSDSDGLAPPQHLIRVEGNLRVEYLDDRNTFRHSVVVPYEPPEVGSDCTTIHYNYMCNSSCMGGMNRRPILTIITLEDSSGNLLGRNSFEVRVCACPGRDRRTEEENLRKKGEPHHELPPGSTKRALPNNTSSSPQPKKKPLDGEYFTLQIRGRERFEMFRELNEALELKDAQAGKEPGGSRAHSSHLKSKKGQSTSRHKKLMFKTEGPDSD
- assay_remarks: Primary qHTS for small molecule compounds that upregulate eGFP-tagged delta133p53alpha (in N-terminal) cells. (AID 2060322);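 further: cells pre-induced with doxycycline then dosed without doxycycline; 0% = DMSO vehicle and 100% = reference activator; nearly all actives have a fitted effect of over 75% in size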
- condition_notes: NCI-H358 eGFP-delta133p53alpha fluorescence, 24 h; stronger effect = higher value
Inconclusive results are not listed.
Entries and their activation
measured_parameter: activation (%)

1. Oc1ccccc1O : -3.18
2. C/C=C(\C)C(=O)OC[C@H]1O[C@@H](O[C@H]2[C@@H](O[C@H]3O[C@H](COC(=O)/C(C)=C/C)[C@@H](O)[C@H](O)[C@H]3O[C@@H]3O[C@H](COC(=O)/C(C)=C/C)[C@@H](O)[C@H](OC(=O)/C(C)=C/C)[C@H]3O)O[C@H](COC(=O)/C(C)=C/C)[C@@H](O)[C@@H]2O)[C@H](O)[C@@H](O)[C@@H]1O : -15.3
3. CCC(=O)c1c(O)cc(O)cc1O : -1.67
4. CC(CCC1(O)OC2CC3C4CCC5CC(O[C@@H]6O[C@H](CO)[C@@H](O)[C@H](O)[C@H]6O[C@@H]6OC[C@@H](O)[C@H](O)[C@H]6O)C(O)CC5(C)C4CCC3(C)C2C1C)CO[C@@H]1O[C@H](CO)[C@@H](O)[C@H](O)[C@H]1O (some centres undefined) : -5.36

* * *

Entries and their activation
- tested_target: Cellular tumor antigen p53 (Homo sapiens)
- assay_remarks: Primary qHTS for small molecule compounds that upregulate eGFP-tagged delta133p53alpha (in N-terminal) cells. (AID 2060322);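 further: cells pre-induced with doxycycline then dosed without doxycycline; 0% = DMSO vehicle and 100% = reference activator; nearly all actives have a fitted effect of over 75% in size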
- condition_notes: NCI-H358 eGFP-delta133p53alpha fluorescence, 24 h; stronger effect = higher value
Records with an inconclusive call do not appear. Starred links: 1 amine or outer side, 2 acyl side, 3 side chain; linkers in the order of their positions; H or OH if unused. Positions of bridges follow the written chain, without caps; N, C: chain ends. Non-standard residues stand in square brackets, D forms with d. Residues, ends and D or L forms follow the SMILES beside them. ξ: configuration not given here. *: point of attachment. X11 = NC1=NCCC(C(N[*:1])C(=O)[*:2])N1; ΔAla(3-NHCONH2) = NC(=O)NC=C(N)C(=O)O; ξβ3hOrn = NCCCC(N)CC(=O)*; Dap = NC[CH](N)C(=O)O
measured_parameter: activation (%)

1) CC(C(C)N1CC(=O)NC(=O)C1)N1CC(=O)NC(=O)C1 (configuration not stated) : 25.1
2) c1cnc2c(c1)ccc1cccnc12 : -78.4
3) CC(C)(C=O)Cc1cc(C(C)(C)C)c(O)c(C(C)(C)C)c1 : -15.2
4) COc1cc(N2CCOCC2)ccc1NC(=O)c1csc(-c2cccnc2)n1 : 24.8
5) CC[C@@H]1C(=O)N(C)c2cnc(Nc3ccc(C(=O)NC4CCC(N5CCN(CC6CC6)CC5)CC4)cc3OC)nc2N1C(C)C (some centres not stated) : -21.7
6) O=C(O)CCC(=O)OC[C@@H](NC(=O)C(Cl)Cl)[C@H](O)c1ccc([N+](=O)[O-])cc1 : 15.1
7) Cc1coc2c1CC1OC1(C)CCC1OC1(C)C2 (configuration not stated) : 4.46
8) CCc1cccc(CC)c1-n1c(C=C(C)C)c(C(=O)N2CCNCC2)cc(-c2nc(-c3ccc(C(F)(F)F)cc3)cs2)c1=O : 26.3
9) COC(=O)c1ccc2c(C(=Nc3ccc(N(C)C(=O)CN4CCN(C)CC4)cc3)c3ccccc3)c(O)[nH]c2c1 : 5.68
10) NCCCC(N)CC(=O)NCC1NC(=O)C(CO)NC(=O)C(N)CNC(=O)C(C2CCN=C(N)N2)NC(=O)C(=CNC(N)=O)NC1=O (stereo not drawn) (H-[Dap]S[Dap](ξβ3hOrn)[ΔAla(3-NHCONH2)][X11]; lactam 1-C; configuration not given here) : -4.18
11) C=C1CC/C=C(/C(=O)O)CCC2C1CC2(C)C (configuration not stated) : -4.58
12) CC(=O)O[C@H]1C[C@@H](O)C(C)(C)C2C[C@@H](OC(C)=O)[C@]3(C)C(CC[C@@]4(C)[C@H](c5ccoc5)OC(=O)[C@H]5O[C@]543)[C@]21C (some centres not stated) : 11.6
13) CC(C)(O)[C@@H]1CC[C@]2(CO)[C@@H](O)CC[C@](C)(O)[C@H]2[C@@H]1O[C@@H]1O[C@H](CO)[C@@H](O)[C@H](O)[C@H]1O : 1.53
14) Nc1cccc(-c2csc(NC(=O)CCCCCCC(=O)NO)n2)c1 : 139
15) Cc1cccc(-c2[nH]c(C(C)(C)C)nc2-c2ccc3c(c2)OCO3)n1 : -10.9
16) Cn1c(=O)c2[nH]c(C3CCCC3)nc2n(C)c1=O : 3.95
17) CC(/C=C/C1(O)C2(C)COC1(C)CC(=O)C2)O[C@@H]1O[C@H](CO)[C@@H](O)[C@H](O)[C@H]1O (some centres not stated) : 2.68

* * *

- tested_target: Cellular tumor antigen p53 (Homo sapiens) (UniProt P04637)
- assay_remarks: Primary qHTS for small molecule compounds that upregulate eGFP-tagged delta133p53alpha (in N-terminal) cells. (AID 2060322);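 further: cells pre-induced with doxycycline then dosed without doxycycline; 0% = DMSO vehicle and 100% = reference activator; nearly all actives have a fitted effect of over 75% in size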
- condition_notes: NCI-H358 eGFP-delta133p53alpha fluorescence, 24 h; stronger effect = higher value
Records with an inconclusive call do not appear.
Entries and their activation
measured_parameter: activation (%)

1) CC(C)(OC1OC(CO)C(O)C(O)C1O)C1CCC(O)(CO)C2CC(=O)C(C)(O)C2C1 (centres undefined) : 22.9
2) COCCOCCOc1ccc(C2=N[C@@](C)(C(=O)O)CS2)c(O)c1 : 1.67
3) CC(C)CC(=O)O[C@@H]1OC=C(CO[C@@H]2O[C@H](CO)[C@@H](O)[C@H](O)[C@H]2O)[C@H]2[C@@H]3O[C@H]3[C@@](O)(CO)[C@@H]12 : -3.05
4) COc1ccc(C[C@H]2COC(=O)[C@@H]2Cc2ccc(O[C@@H]3O[C@H](CO)[C@@H](O)[C@H](O)[C@H]3O)c(OC)c2)cc1OC : 15.2
5) O=C(O)c1ccnc2cc(C(OCCCN3CCCCC3)c3ccccc3Cl)[nH]c12 (centres undefined) : 1.12
6) COc1c(Cl)cc2c([nH]c3cnccc32)c1NC(=O)c1cccnc1C : 16.3
7) CC1=C(C)C(=O)OC(C(C)(O)C2CCC3C4CC=C5CC(OC6OC(COC7OC(CO)C(O)C(O)C7O)C(O)C(O)C6O)CC(O)C5(C)C4CCC32C)C1 (centres undefined) : -6.87
8) COc1cc2c(CCNC(C)=O)c[nH]c2cc1O : -10.8
9) CC[C@@H](O)C[C@@H]1C(C)=C[C@@H]2CCCC[C@@H]2[C@@]1(C)C(=O)O : -6.87
10) CSc1cccc(Nc2ncc3cc(-c4c(Cl)cccc4Cl)c(=O)n(C)c3n2)c1 : -0.477
11) Cc1ccc(C(=O)NCCCCCC(=O)Nc2ccccc2N)cc1 : 11.2
12) CC(C)(F)CC(NC(c1ccc(-c2ccc(S(C)(=O)=O)cc2)cc1)C(F)(F)F)C(=O)NC1(C#N)CC1 (centres undefined) : -1.43
13) O=C(O)CCc1cccc(O)c1O[C@@H]1O[C@H](CO)[C@@H](O)[C@H](O)[C@H]1O : 0
14) COc1ccc(C(OC2OC(CO)C(O)C(O)C2O)C(C)O)cc1 (centres undefined) : 9.82
15) O=C(COCCOCCOCC(=O)Nc1c(I)cc(I)c(C(=O)O)c1I)Nc1c(I)cc(I)c(C(=O)O)c1I : 10
16) CC12CCC(OC3OC(CO)C(O)C(OC4OC(CO)C(O)C(O)C4O)C3O)CC1CCC1C2CCC2(C)/C(=C3/COC(=O)C3)CCC12O (centres undefined) : -3.82
17) NNc1nnc(NN)c2ccccc12 : -35.1
18) CCOc1ccc(S(=O)(=O)N2CCCCCC2)c2ccccc12 : -13.7
19) Cc1ccc(-c2ncccn2)c(C(=O)N2C[C@H](COc3ccc(F)cn3)CC[C@H]2C)c1 : -14.3
